Molecular target: Cytochrome P450 2D6 (Homo sapiens)
Test: Cytochrome P450 Family 2 Subfamily D Member 6 (CYP2D6) small molecule antagonists: luciferase reporter qHTS assay (AID 1671196); further: nearly all actives have a fitted effect of over 50% in size; further: potency means the concentration at half of the fitted maximal effect
Settings: P450-Glo CYP2D6 enzyme assay, luciferin luminescence, 1 h; series mostly up to 115 µM
Inconclusive results are not listed. Activity calls are given as the source filed them. The call rests on the fitted dose curve; in most records, active means well fitted inhibition curve with a large enough effect in the repeat runs; inconclusive means weak or mixed curves; inactive means no such curve, though single readings can be large or run the other way.
PROPERTY_NAME: Potency

Look over these answered cases.
[[record]]
molecule = "C[Si](C)(C)O[Si](O)(O)O"
target = "Cytochrome P450 2D6 (Homo sapiens)"
property_name = "Potency"
recorded_result = "inactive"

[[record]]
molecule = "Cc1ccc(O)c([N+](=O)[O-])c1"
target = "Cytochrome P450 2D6 (Homo sapiens)"
property_name = "Potency"
recorded_result = "71.8 µM (active)"

[[record]]
molecule = "Clc1ccc2c(c1)Nc1ccccc1S2"
target = "Cytochrome P450 2D6 (Homo sapiens)"
property_name = "Potency"
recorded_result = "inactive"

[[record]]
molecule = "O=c1c(O)c(O)c1=O"
target = "Cytochrome P450 2D6 (Homo sapiens)"
property_name = "Potency"
recorded_result = "inactive"

[[record]]
molecule = "N#Cc1ccccc1C#N"
target = "Cytochrome P450 2D6 (Homo sapiens)"
property_name = "Potency"
recorded_result = "inactive"


Find Potency (Cytochrome P450 2D6 (Homo sapiens)) for the entry CC(C)(C)NCC(O)COc1cccc2c1CCC(=O)N2 (centres undefined) inactive

Quick one: `CC(C)c1cc(C(C)C)cc(C(C)C)c1` inactive

Quick one: `COC(C)(C)CC(C)=O` inactive

Quick one: COc1ccccc1N1CCN(CC(O)COc2cc(OC)c(OC)c(OC)c2)CC1 (centres undefined) inactive

Quick one: `Cc1ccc(O)c(C(=O)c2ccccc2)c1` 11.4 µM (active)

Quick one: `C/C=C(\C)C=O` inactive

Quick one: `CCOc1ccccc1OCCN[C@H](C)Cc1ccc(OC)c(S(N)(=O)=O)c1` 12.3 µM (active)

Quick one: `CCO[Si](CC(C)C)(OCC)OCC` 44.8 µM (active)

Quick one: `CC(C)(C)c1ccc(C(=O)CCCCl)cc1` inactive

* * *

Experiment: qHTS assay for small molecules that induce genotoxicity in human embryonic kidney cells expressing luciferase-tagged ATAD5 (AID 651632); further: on the % scale 0 is the no-effect control and ±100 the full control effect; nearly all actives have a fitted effect of over 15% in size
Conditions: HEK293T ATAD5-luciferase induction, 16 h; series mostly up to 83.3 µM
Inconclusive results are not listed. Active and inactive are the calls of the source. Calls come from the whole dose curve; as a rule, active = well fitted activation curve with a large enough effect in the repeat runs; inconclusive = weak or mixed curves; inactive = no such curve, though single readings can be large or run the other way.
PROPERTY_NAME: outcome

Look over these answered cases.
[[record]]
compound = "Cc1nnc(C(=O)NC(C)(C)c2nc(C(=O)NCc3ccc(F)cc3)c(O)c(=O)n2C)o1"
recorded_result = "inactive"

[[record]]
compound = "C=C(C)C(=O)OCCCC"
recorded_result = "inactive"

[[record]]
compound = "O=CN1CCCCC1"
recorded_result = "inactive"

[[record]]
compound = "CCCCCCC(O)CO (stereo not drawn)"
recorded_result = "inactive"

[[record]]
compound = "CCCCCC(=O)CC"
recorded_result = "inactive"


Request the reported outcome associated with `CCCCCCCCCCCCCCCC(=O)OC` inactive

* * *

Assay: qHTS RealTime-Glo MT Cell Viability Assay in HEK293 cells - 8 hour (AID 1224887); further: top concentration of the series differs between compounds; on the % scale 0 is the no-effect control and ±100 the full control effect; nearly all actives have a fitted effect of over 50% in size
Details: RealTime-Glo luminescence; series mostly up to 76.8 µM
Results filed as inconclusive are left out. Activity calls are given as the source filed them. Calls come from the whole dose curve; as a rule, active = well fitted cell-killing curve with a large enough effect in the repeat runs; inconclusive = weak or mixed curves, or effect the other way; inactive = flat fitted curve, though single readings scatter.
PROPERTY_NAME: activity change, negative = cytotoxicity

Look over these answered cases.
[[record]]
molecule = "CCCCNCC"
recorded_result = "inactive"

[[record]]
molecule = "COC(=O)/C=C(\\C)CCC=C(C)C"
recorded_result = "inactive"

[[record]]
molecule = "CCCC[O][Al]([O]CCCC)[O]CCCC"
recorded_result = "inactive"

[[record]]
molecule = "C/C=C(\\C)C=O"
recorded_result = "inactive"

[[record]]
molecule = "CCCC(=O)CC"
recorded_result = "inactive"

[[record]]
molecule = "O=P(O)(O)C(O)(Cc1cccnc1)P(=O)(O)O"
recorded_result = "inactive"


Request the reported activity change, negative = cytotoxicity associated with `Cc1ccc(N)nc1` inactive

Quick one: CCCCCCC(O)CO (stereo not drawn) inactive

* * *

Experiment: qHTS assay to identify small molecule antagonists of the estrogen receptor beta (ER-beta) signaling pathway - cell viability counter screen (AID 1259382);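 further: HEK293T cells carrying ER-beta-UAS-bla reporter stimulated with estradiol; on the % scale 0 is the no-effect control and ±100 the full control effect; nearly all actives have a fitted effect of over 55% in size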
Conditions: ER-beta-UAS-bla HEK293T viability, CellTiter-Glo luminescence, 16 h; series mostly up to 92.4 µM
Inconclusive results are not listed. Activity calls are given as the source filed them. Calls follow the shape of the dose curve; as a rule, active = well fitted cell-killing curve with a large enough effect in the repeat runs; inconclusive = weak or mixed curves; inactive = flat fitted curve, though single readings scatter.
PROPERTY_NAME: activity change, negative = cytotoxicity

[[record]]
molecule = "O=C(O)CCC(=O)Nc1ccc(S(=O)(=O)Nc2nccs2)cc1"
recorded_result = "inactive"

[[record]]
molecule = "CC(=O)Oc1ccc(C(C)=O)cc1"
recorded_result = "inactive"

[[record]]
molecule = "CCCC[O][Al]([O]CCCC)[O]CCCC"
recorded_result = "inactive"

[[record]]
molecule = "CCCCCCCCCCCCCCCC/C=C/C1CC(=O)OC1=O (stereo not drawn)"
recorded_result = "inactive"

[[record]]
molecule = "CC(C)(Sc1cc(C(C)(C)C)c(O)c(C(C)(C)C)c1)Sc1cc(C(C)(C)C)c(O)c(C(C)(C)C)c1"
recorded_result = "inactive"


Request the reported activity change, negative = cytotoxicity associated with `CCO/C=C1\N=C(c2ccccc2)OC1=O` inactive

Quick one: `COC(=O)N/N=C/c1c[n+]([O-])c2ccccc2[n+]1[O-]` inactive

Quick one: `CCCCN(CCCC)CCCCCCN(CCCC)CCCC` inactive

* * *

Assay: qHTS assay for small molecules that induce genotoxicity in human embryonic kidney cells expressing luciferase-tagged ATAD5 - cell viability (AID 651634); further: on the % scale 0 is the no-effect control and ±100 the full control effect; nearly all actives have a fitted effect of over 25% in size
Details: HEK293T ATAD5-luc cells viability, CellTiter-Fluor, 15.5 h; series mostly up to 83.3 µM
Records with an inconclusive call do not appear. Activity calls are given as the source filed them. The call rests on the fitted dose curve.
PROPERTY_NAME: activity, negative = cytotoxicity

[[record]]
compound_structure = "CN(C)CCC[C@@]1(c2ccc(F)cc2)OCc2cc(C#N)ccc21"
property_name = "activity, negative = cytotoxicity"
recorded_result = "inactive"

[[record]]
compound_structure = "CCOC(=O)CC(C(C)=O)C(C)=O"
property_name = "activity, negative = cytotoxicity"
recorded_result = "inactive"

[[record]]
compound_structure = "C[Si](C)(C)O[Si](O)(O)O"
property_name = "activity, negative = cytotoxicity"
recorded_result = "inactive"

[[record]]
compound_structure = "CCOc1ccccc1OCCN[C@H](C)Cc1ccc(OC)c(S(N)(=O)=O)c1"
property_name = "activity, negative = cytotoxicity"
recorded_result = "inactive"

[[record]]
compound_structure = "C=CC(=O)OCCOCCOCC"
property_name = "activity, negative = cytotoxicity"
recorded_result = "inactive"

[[record]]
compound_structure = "Cc1ccc(O)c([N+](=O)[O-])c1"
property_name = "activity, negative = cytotoxicity"
recorded_result = "inactive"

[[record]]
compound_structure = "BrCCOc1ccccc1"
property_name = "activity, negative = cytotoxicity"
recorded_result = "inactive"

[[record]]
compound_structure = "O=C(CCBr)N1CCN(C(=O)CCBr)CC1"
property_name = "activity, negative = cytotoxicity"
recorded_result = "inactive"


Request the reported activity, negative = cytotoxicity associated with `CC(=O)OCC(=O)[C@@]1(O)CC[C@H]2[C@@H]3CCC4=CC(=O)C=C[C@]4(C)[C@H]3[C@@H](O)C[C@@]21C` inactive

Quick one: `COC(C)(C)CC(C)=O` inactive

Quick one: `CCc1ncc(C)[nH]1` inactive

Quick one: `CC(C)C[P+](C)(CC(C)C)CC(C)C` inactive

Quick one: `N#Cc1ccccc1C#N` inactive

* * *

Assay: qHTS assay to identify small molecule antagonists of the estrogen related receptor (ERR) signaling pathway from Tox21 library - cell viability counter screen (AID 1224834); further: on the % scale 0 is the no-effect control and ±100 the full control effect; nearly all actives have a fitted effect of over 30% in size
Conditions: ERR reporter cells viability, CellTiter-Fluor, 17.5 h; series mostly up to 92.4 µM
Results filed as inconclusive are left out. The source made the active and inactive calls. Calls follow the shape of the dose curve; as a rule, active = well fitted cell-killing curve with a large enough effect in the repeat runs; inconclusive = weak or mixed curves; inactive = flat fitted curve, though single readings scatter.
PROPERTY_NAME: viability change, negative = cytotoxic

Look over these answered cases.
[[record]]
compound = "Cc1ccc(O)c(C(=O)c2ccccc2)c1"
property_name = "viability change, negative = cytotoxic"
recorded_result = "inactive"

[[record]]
compound = "NC[C@H]1O[C@H](O[C@H]2[C@H](O)[C@@H](O[C@H]3O[C@H](CO)[C@@H](O)[C@H](N)[C@H]3O)[C@H](N)C[C@@H]2N)[C@H](N)[C@@H](O)[C@@H]1O"
property_name = "viability change, negative = cytotoxic"
recorded_result = "2% [at 19 µM] (inactive)"

[[record]]
compound = "C=CC(=O)OCCOCCOCC"
property_name = "viability change, negative = cytotoxic"
recorded_result = "inactive"

[[record]]
compound = "CCC(C)SSC(C)CC (stereo unspecified)"
property_name = "viability change, negative = cytotoxic"
recorded_result = "inactive"

[[record]]
compound = "CC(C)C(C)C"
property_name = "viability change, negative = cytotoxic"
recorded_result = "inactive"


// moving on: another record for viability change, negative = cytotoxic
Request the reported viability change, negative = cytotoxic associated with `Cc1cc(C)c(C)c(C)c1` inactive

FYI, the data here is from PubChem BioAssay (Tox21).
